# System: T-47D breast
# assay.comment: NCI tumour cell line growth inhibition, 48 h
measured.metric: TGI

Consider the following illustrative entries.
• NC1CCC[C@@H](O)[C@H]1O (some centres not stated) = > 100 µM
• COc1ccc2c(-c3ccc(O)cc3)c(Oc3ccccc3)c(=O)oc2c1 = > 100 µM
• O=C(NCCCCNCCCNC(=O)C(F)(F)F)C(F)(F)F = > 100 µM

Value lookup for TGI; key = `O=C(N/N=C/c1ccc(O)cc1O)c1ccc(Nc2ccnc(C(F)(F)F)c2)cc1`
> 100 µM

# iterate: `FC(F)(F)C1(C(F)(F)F)OC(Cl)(Cl)C(Cl)(Cl)O1`
> 10 µM

----------
# Test system: SF-295 CNS
# assay.comment: NCI tumour cell line growth inhibition, 48 h
measured.metric: TGI

Sample records with TGI:
- CSc1cc(Cl)c(C)cc1S(=O)(=O)NC(=O)NNc1ccccn1: > 100 µM
- O=C(NCCCCNCCCNC(=O)C(F)(F)F)C(F)(F)F: > 100 µM
- O=C(c1ccco1)N1CCN(C(=O)c2ccco2)C1=S: 35.8 µM
- CCOC(=O)c1cc2cc(CSc3ccccc3)ccc2oc1=O: > 100 µM
- N#C[C@](CO)(NC(=O)OCc1ccccc1)C(F)F: > 100 µM
- Cc1nc(Nc2ccc(F)c(Cl)c2)sc1C(=O)O: 3.15 µM

Give its TGI value. Item: `COc1ccccc1/C=C1/Sc2scc(CC(=O)Nc3ccccc3)[n+]2C1=O`
> 100 µM

Try this compound next: CCOP(=O)(OCC)C(Cc1ccccc1)N=C(c1ccccc1)c1ccccc1 (stereo not drawn)
25.8 µM

----------
# Tested on: PC-3 prostate
# assay.comment: NCI tumour cell line growth inhibition, 48 h
Known GI50 of a selection of molecules

• Cc1nc(NC(=S)Nc2ccc(F)cc2)sc1C(=O)NNC(=S)Nc1ccc(F)cc1 = 4.38 µM
• CCC(C)/C=C(C)/C=C/C(=O)c1c(O)c(-c2ccc(O)cc2)c[nH]c1=O (stereo not given) = 3.33 µM
• Cc1ccc(NS(=O)(=O)c2cc(C)ccc2C)cc1 = 11.4 µM
• O=C(c1cc(-c2cc3c(cc2C(=O)N2Cc4ccccc4C[C@H]2CN2CCOCC2)OCO3)n2c1CCCC2)N(c1ccccc1)c1ccc(O)cc1 = 2.99 µM

For the record `NC(=NC1CCCCCC1)c1ccc(N2CCN(c3ccc(C(N)=NC4CCCCCC4)cc3)CC2)cc1` , what value of GI50 is listed for PC-3 prostate?
12.1 µM

----------
# System: SNB-75 CNS
# assay.comment: NCI tumour cell line growth inhibition, 48 h; in the data active = GI50 below about 0.43 µM; inactive = the rest
Bench note: report the call from yes (1) (active), no (0) (inactive)

Outcome logged for `c1cncc(CNc2ccccc2-c2nnc(Nc3ccc4c(c3)OCCO4)o2)c1` in this assay:
yes (1)

----------
# Tested on: UO-31 renal
# assay.comment: NCI tumour cell line growth inhibition, 48 h
measured.metric: GI50

# annotated cases, reported GI50 shown
• O=C1C(Cl)=C(N2CCOCC2)C(=O)c2ccccc21 = 1640 nM
• N#CSCC1CC(O)(c2ccccc2)C(c2ccccc2)C(c2ccc(F)cc2)O1 (stereo not drawn) = 2620 nM

Consider the molecule shown here: `O=c1[nH]nc2c3c(cccc13)NC(CN1Cc3ccccc3C1)=N2` What is its recorded GI50?
4790 nM

// provenance: PubChem BioAssay (NCI)
